Assay details: Toxicity liver stage against HepG2, at 10uM
Type: cell-based
Design: test concentration 10 uM, cell line HepG2-A16-CD81EGFP
Measurement parameters: human, HepG2-A16-CD81EGFP cells; read-out: INHIBITION
Readout kind: cytotoxicity at 10 µM (%)
Please give a number only; it is taken to be in %.

Memo: O=C(Cc1ccccc1F)NCC1CCN(CCN2CCOCC2)C1 (stereo unspecified) , reported cytotoxicity at 10 µM: -47

Record CC(C)Nc1nc(N2CCOCC2)nc2c1CN(Cc1ccoc1)CC2 , field cytotoxicity at 10 µM: 1.52

Field cytotoxicity at 10 µM (entry c1ccc(-c2nc(CNC3CCCN(c4cccnn4)C3)no2)cc1 (stereo unspecified) ) reads 15.9

Input O=C(C1CCN(Cc2nc(-c3ccco3)no2)CC1)N1CCCC1 . Output cytotoxicity at 10 µM: -3.4

# cytotoxicity at 10 µM of Cc1ccnc(NC(=O)C(C)Cn2cncn2)c1 (stereo unspecified) = 0.298

Reported cytotoxicity at 10 µM of COc1ccc(CN2CC(O)CN(C(=O)OCC(C)C)CC2=O)cc1 (stereo unspecified) : -7.34

So for Cc1ccc(-c2cnn(CC(=O)NC(C)C)c2)cc1 , the logged cytotoxicity at 10 µM turned out to be 0.724

The reported value for Cc1ccccc1-c1cc(NC(=O)NC2CC2)n(CCO)n1 in terms of cytotoxicity at 10 µM is 8.09

Note to self: cytotoxicity at 10 µM recorded for COCCCNC(=O)CN(C)C(=O)c1cc(C)ccc1N(C)C(C)C was -4.84

Quick note, cytotoxicity at 10 µM for O=C(O)c1cccnc1CN1CCCCC1CCc1cccs1 (stereo unspecified) landed at 5.23

For this molecule ( O=C(N[C@@H]1CC[C@@H](N2CCCC2)[C@@H]1O)c1cc2cccc(F)c2[nH]1 ), measured cytotoxicity at 10 µM is 2.91

Data point: Cc1cc(C)c(C(=O)N(C)CCN(C)C(=O)OC(C)(C)C)[nH]1 ; cytotoxicity at 10 µM = 3.87

Summary for this molecule, O=C(c1ccnn1-c1ccc2ccccn12)N1CCCC1 : cytotoxicity at 10 µM is -102

Reported cytotoxicity at 10 µM for CCn1cc(NC(=O)C2CCN(CC(=O)NC3CCCC3)CC2)cn1 was -6.52

Lab note: CCN(CC(C)C#N)C(=O)c1cccc(COc2ccc(C)nc2)c1 (stereo unspecified) gave cytotoxicity at 10 µM of 5.8

GET /value?item= COCCNC(=O)[C@H]1CN(Cc2cccs2)C[C@H]2OCC[C@@H]12 &field=cytotoxicity at 10 µM returns 4

----------
Assay details: Toxicity liver stage against HepG2, at 10uM
Type: cell-based
Set-up: test concentration 10 uM, cell line HepG2-A16-CD81EGFP
Measurement parameters: human, HepG2-A16-CD81EGFP cells; read-out: INHIBITION
Readout kind: cytotoxicity at 10 µM

GET /value?item= Cc1noc(C)c1C(=O)NCC(C)N1CCc2ccccc21 (stereo unspecified) &field=cytotoxicity at 10 µM returns -17.2%

Lab note: measured cytotoxicity at 10 µM of CC1(C)CCC(CC(=O)O)c2ccccc21 (stereo unspecified) was 2.93%

Value of measured cytotoxicity at 10 µM for the entry O=c1cc(N2CCc3ccccc3C2)cnn1CCC1CCOC1 (stereo unspecified) : -1.19%

Looking up Cc1cnn(C2CCCN(C(=O)CCc3c(C)noc3C)C2)c1 (stereo unspecified) , I found its cytotoxicity at 10 µM recorded as -17.2%

Documented cytotoxicity at 10 µM of CC(=O)N1CCC(Cc2cnc(-c3c(C)n[nH]c3C)cn2)C1 (stereo unspecified) : -1.88%

Just so you know, measured cytotoxicity at 10 µM for O=C(Cc1ccccn1)N1CCC2(CCCN(CC3CCOCC3)C2)C1 (stereo unspecified) came out at -122%

The compound listed as COCCc1noc(CN(C)C2CCCN(c3cccnn3)C2)n1 (stereo unspecified) shows cytotoxicity at 10 µM equal to -8.64%

# cytotoxicity at 10 µM (compound: CNC(=O)C(C)(C)N1CCC[C@H]1C(=O)NCC(C)C ) is 1.55%

Reported cytotoxicity at 10 µM for CCNc1ncc(-c2cc(-c3ccn(C)c3)nc(N)c2C#N)cn1 was 7.14%

Record summary for Cc1cccc(N(CC(=O)N2CCCCC2)C(=O)C2CCCO2)c1 (stereo unspecified) : reported cytotoxicity at 10 µM = -1.52%

Entry CC1(C)CN=C(N2CCN(CC3CCCCO3)CC2)S1 (stereo unspecified) — recorded cytotoxicity at 10 µM = -1.61%

Where do the numbers come from? From ChEMBL document CHEMBL4513216.
